Data provenance: patent US20210261937

# assayed.system: bdSUMO^Mut1-MBP fusion protein
observation.type: cleavage of the SUMO fusion protein (% cleavage)
The reply should be a number in % cleavage, with the unit left off.

*Q* What cleavage of the SUMO fusion protein value was documented for this protein, bdSENP1^MutB protease (protein) PFVPLTDEDEDNVRHALGGRKRSETLSVHEASSIVITREILQCLNDKEWLNDEVINLYLELLKERELREPNKFLKCHFFNTFFYKKLINGGYDYKSVREWTTKRKLGYNLIDCDKIFVPIHKDVHWCLAVINIKEKKFQYLDSLGYMDMKALRILAKYLVDEVKDKSGKQIDVHAWKQEGVQNLPLQENGWDCGMFMLKYIDFYSRDMELVFGQKHMSYFRRRTAKEILDLKAG ?
*A* 100

*Q* Look up cleavage of the SUMO fusion protein: bdSENP1^MutH (protein) PFVPLTDEDEDNVRHALGGRKPSETLSVHEASAIVITREILQCLNDKEWLNDEVINLYLELLKERELREPNKFLKCHFFNTFFYKKLINGYDYKSVREWTTMRKLGYNLIDCDKIFVPIHKDVHWCLAVINIKEKKFQYLDSLGYMDMKALRILAKYLVDEVKDKSGKQIDVHAWKQEGVQNLPLQENGWDCGMFMLKYIDFYSRDMELVFGQKHMSYFRRRTAKEILDLKAG
*A* 100

*Q* If you can, please state the reported cleavage of the SUMO fusion protein value of bdSENP1^MutG (protein) PFVPLTDEDEDNVRHALGGRKSSETLSVHEASHIVITREILQCLNDKEWLNDEVINLYLELLKERELREPNKFLKCHFFNTFFYKKLINGGYDYKSVRRWTTVKLGYNLIDCDKIFVPIHKDVHWCLAVINIKEKKFQYLDSLGYMDMKALRILAKYLVDEVKDKSGKQIDVHAWKQEGVQNLPLQENGWDCGMFMLKYIDFYSRDMELVFGQKHMSYFRRRTAKEILDLKAG .
*A* 100
